Just for reference, PubChem BioAssay (NCI) is where these values come from.

- System: IGROV1 ovarian
- protocol_details: NCI tumour cell line growth inhibition, 48 h
*1 amine or outer side, *2 acyl side, *3 side chain or, on linkers, in order; H or OH if unused. Where a SMILES comes first, the peptide text is derived from it. Bridges are numbered along the chain shown (N, C = ends). Roman numbers before positions name the chains, in order. [ ]: non-standard residue; d: D form. Actinocin(9to1) = Cc1c2oc3c(C)ccc(C(=O)[*:1])c3nc-2c(C(=O)[*:2])c(N)c1=O; NMeH = CN[CH](Cc1c[nH]cn1)C(=O)O; Sar = CNCC(=O)O
recorded_endpoint: TGI

| compound | recorded_endpoint | result |
| --- | --- | --- |
| O=C(c1ccccc1)c1ccc2nc(-c3c(Cl)c(Cl)c(Cl)c(Cl)c3-c3nnc(-c4ccccc4)o3)[nH]c2c1 | TGI | > 100 µM |
| Cc1c(C(=O)C/C(=N/NC(=O)c2ccccc2)C(=O)Nc2ccc(Cl)cc2)[n+](=O)c2ccccc2n1[O-] | TGI | > 100 µM |
| O=C(Nc1sccc1S(=O)(=O)c1ccc(Cl)cc1)c1ccc(F)cc1F | TGI | > 100 µM |
| CCOC(=O)N1C/C(=C\c2ccccc2)C(=O)/C(=C/c2ccccc2)C1 | TGI | 11.7 µM |
| O=C1NC(=O)c2ccccc2/C1=C/c1ccc2c(c1)OCO2 | TGI | 60.9 µM |
| COC(=O)C1=C(OC(=O)/C(=C/c2ccccc2)c2ccc(OC)cc2)C(C(=O)OC)[C@@]2(O)[C@@H](C(=O)OC)[C@H](C)C[C@@H]1[C@@H]2C(=O)OC (stereo partly specified) | TGI | > 100 µM |
| Cc1cc(N(CCC#N)S(=O)(=O)c2ccccc2)ccc1/C=C1\N=C(c2ccc(Cl)cc2)OC1=O | TGI | > 100 µM |
| ClC(Cl)(Cl)C1CCOC1n1nnc2ccccc21 (stereo unspecified) | TGI | > 100 µM |
| O=C(/C=C(\O)C(=O)O)/C=C(\O)c1ccccc1 | TGI | > 100 µM |
| Fc1ccc(-c2ncn(C3CCNCC3)c2-c2ccnc(Oc3ccc4c(c3)OCO4)n2)cc1 | TGI | > 25 µM |
| O=S(=O)(O)O | TGI | 2170 µM |
| Nc1cc2c(c3ccccc13)C(CCl)CN2C(=O)c1cc2cc(NC(=O)Nc3ccc4[nH]c(C(=O)N5CC(CCl)c6c5cc(N)c5ccccc65)cc4c3)ccc2[nH]1 (stereo unspecified) | TGI | 1.4 µM |
| CCO/C=C1\N=C(c2ccc(Cl)c(Cl)c2)OC1=O | TGI | > 100 µM |
| CCc1cccc2c3c([nH]c12)-c1ccccc1NC(=O)C3 | TGI | > 100 µM |
| CNC(=O)NCC1OC(n2cnc3c(NC(=O)Nc4ccccc4)ncnc32)C(O[Si](C)(C)C(C)(C)C)C1O[Si](C)(C)C(C)(C)C (stereo unspecified) | TGI | 7.76 µM |
| CC(C)C1CO[C@]2(C)CCC(=O)N12 (stereo partly specified) | TGI | > 100 µM |
| COc1cc2c(cc1OC)C(C(=O)O)C(c1ccccc1)N(C)C2=O (stereo unspecified) | TGI | > 100 µM |
| N#Cc1c(-c2ccc(Cl)cc2)cc(-c2ccc(Nc3ccnc4cc(Cl)ccc34)cc2)[nH]c1=O | TGI | > 100 µM |
| CO/N=C(\COc1ccc2c(=O)c3ccccc3oc2c1)c1ccccc1 | TGI | > 100 µM |
| c1ccc(-c2nn3c(c2-c2ccnc4cc(OCCN5CCOCC5)ccc24)CCC3)nc1 | TGI | > 100 µM |
| Cc1c2oc3c(C)ccc(C(=O)NC4C(=O)NC(C(C)C)C(=O)N5CCCC5C(=O)N(C)CC(=O)N(C)C(Cc5cnc[nH]5)C(=O)OC4C)c3nc-2c(C(=O)NC2C(=O)NC(C(C)C)C(=O)N3CCCC3C(=O)N(C)CC(=O)N(C)C(Cc3cnc[nH]3)C(=O)OC2C)c(N)c1=O (stereo unspecified) (I: TVP[Sar][NMeH] / II: TVP[Sar][NMeH]; ester I:1-I:C, II:1-II:C; linker I:N-II:N via Actinocin(9to1); configuration not given here) | TGI | > 100 µM |
